# tgt: dAsCas12a S542R (Acidaminococcus sp., UniProt U2UMQ6 1-1307, S542R;D908A;E993A;D1235A)
# measurement.protocol: Spec-seq (native PAGE EMSA with sequencing of bound and unbound); 25 mM Tris-HCl pH 7.4, 150 mM KCl, 5 mM MgCl2, 10% glycerol, 1 mM DTT, 40 ng/uL salmon sperm DNA; 400 nM Cas12a, 480 nM crRNA, 50 nM library, 37 C 1 h; native PAGE at room temperature; high values mean tight binding;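 also: relative affinity from the bound to unbound sequence frequency ratio in Spec-seq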
# condition.description: protein: recombinant
quantity.name: binding signal (lnKA)
Lab book: enter the figure in lnKA, no units written.

State the recorded binding signal for this entry: TAGC (dsDNA) DNA 1: GCTATCTAGTGCTCAGTACGCACTGTAGCAGGAAACTTCTGGCAGGACCAGGTCATGAGATCGGAAGAGCACACGTCTGAACTCCAGTCA DNA 2: TGACTGGAGTTCAGACGTGTGCTCTTCCGATCTCATGACCTGGTCCTGCCAGAAGTTTCCTGCTACAGTGCGTACTGAGCACTAGATAGC RNA: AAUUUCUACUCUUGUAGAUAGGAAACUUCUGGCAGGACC
-8.4

Another: GATC (dsDNA) DNA 1: GCTATCTAGTGCTCAGTACGCACTGGATCAGGAAACTTCTGGCAGGACCAGGTCATGAGATCGGAAGAGCACACGTCTGAACTCCAGTCA DNA 2: TGACTGGAGTTCAGACGTGTGCTCTTCCGATCTCATGACCTGGTCCTGCCAGAAGTTTCCTGATCCAGTGCGTACTGAGCACTAGATAGC RNA: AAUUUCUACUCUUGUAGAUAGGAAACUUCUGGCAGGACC
-8.34

Another: GGTA (dsDNA) DNA 1: GCTATCTAGTGCTCAGTACGCACTGGGTAAGGAAACTTCTGGCAGGACCAGGTCATGAGATCGGAAGAGCACACGTCTGAACTCCAGTCA DNA 2: TGACTGGAGTTCAGACGTGTGCTCTTCCGATCTCATGACCTGGTCCTGCCAGAAGTTTCCTTACCCAGTGCGTACTGAGCACTAGATAGC RNA: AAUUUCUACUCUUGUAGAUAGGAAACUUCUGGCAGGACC
-7.66

Another: GCAT (dsDNA) DNA 1: GCTATCTAGTGCTCAGTACGCACTGGCATAGGAAACTTCTGGCAGGACCAGGTCATGAGATCGGAAGAGCACACGTCTGAACTCCAGTCA DNA 2: TGACTGGAGTTCAGACGTGTGCTCTTCCGATCTCATGACCTGGTCCTGCCAGAAGTTTCCTATGCCAGTGCGTACTGAGCACTAGATAGC RNA: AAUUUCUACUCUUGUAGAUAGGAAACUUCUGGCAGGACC
-8.69

Another: CCAT (dsDNA) DNA 1: GCTATCTAGTGCTCAGTACGCACTGCCATAGGAAACTTCTGGCAGGACCAGGTCATGAGATCGGAAGAGCACACGTCTGAACTCCAGTCA DNA 2: TGACTGGAGTTCAGACGTGTGCTCTTCCGATCTCATGACCTGGTCCTGCCAGAAGTTTCCTATGGCAGTGCGTACTGAGCACTAGATAGC RNA: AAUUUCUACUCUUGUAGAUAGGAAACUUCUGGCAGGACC
-8.87

Another: TGAT (dsDNA) DNA 1: GCTATCTAGTGCTCAGTACGCACTGTGATAGGAAACTTCTGGCAGGACCAGGTCATGAGATCGGAAGAGCACACGTCTGAACTCCAGTCA DNA 2: TGACTGGAGTTCAGACGTGTGCTCTTCCGATCTCATGACCTGGTCCTGCCAGAAGTTTCCTATCACAGTGCGTACTGAGCACTAGATAGC RNA: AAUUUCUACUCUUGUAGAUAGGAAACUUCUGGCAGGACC
-8.47

Another: CGAA (dsDNA) DNA 1: GCTATCTAGTGCTCAGTACGCACTGCGAAAGGAAACTTCTGGCAGGACCAGGTCATGAGATCGGAAGAGCACACGTCTGAACTCCAGTCA DNA 2: TGACTGGAGTTCAGACGTGTGCTCTTCCGATCTCATGACCTGGTCCTGCCAGAAGTTTCCTTTCGCAGTGCGTACTGAGCACTAGATAGC RNA: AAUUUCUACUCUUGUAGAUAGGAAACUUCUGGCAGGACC
-8.66

Another: TCAT (dsDNA) DNA 1: GCTATCTAGTGCTCAGTACGCACTGTCATAGGAAACTTCTGGCAGGACCAGGTCATGAGATCGGAAGAGCACACGTCTGAACTCCAGTCA DNA 2: TGACTGGAGTTCAGACGTGTGCTCTTCCGATCTCATGACCTGGTCCTGCCAGAAGTTTCCTATGACAGTGCGTACTGAGCACTAGATAGC RNA: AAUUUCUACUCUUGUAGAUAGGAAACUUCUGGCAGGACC
-8.4

Another: ATGC (dsDNA) DNA 1: GCTATCTAGTGCTCAGTACGCACTGATGCAGGAAACTTCTGGCAGGACCAGGTCATGAGATCGGAAGAGCACACGTCTGAACTCCAGTCA DNA 2: TGACTGGAGTTCAGACGTGTGCTCTTCCGATCTCATGACCTGGTCCTGCCAGAAGTTTCCTGCATCAGTGCGTACTGAGCACTAGATAGC RNA: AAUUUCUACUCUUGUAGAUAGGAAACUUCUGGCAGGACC
-8.32

Another: TTTC (dsDNA) DNA 1: GCTATCTAGTGCTCAGTACGCACTGTTTCAGGAAACTTCTGGCAGGACCAGGTCATGAGATCGGAAGAGCACACGTCTGAACTCCAGTCA DNA 2: TGACTGGAGTTCAGACGTGTGCTCTTCCGATCTCATGACCTGGTCCTGCCAGAAGTTTCCTGAAACAGTGCGTACTGAGCACTAGATAGC RNA: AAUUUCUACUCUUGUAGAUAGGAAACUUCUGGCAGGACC
-0.143
